System: U2OS
protocol.summary: Multiplex assay against U2OS
Type: toxicity, cell-based
experimental.setup: human, 12 h, 10 µM, compound concentration 10 uM, replicate 1

>  <compound>
COc1ccc(-c2ccc3c(N4CCOCC4)nc(N4C[C@@H](C)O[C@@H](C)C4)nc3n2)cc1CO [Ku-0063794]

>  <Population Pyknosed Nuclei (%)>
4

$$$$
>  <compound>
CN1CCN(C(=O)C(C)(C)c2ccc(C(=O)Nc3cn4cc(-c5cc(C(C)(C)C)cc(C(C)(C)C)c5)ccc4n3)cc2)CC1 [T3-CLK-N]

>  <Population Pyknosed Nuclei (%)>
6

$$$$
>  <compound>
COc1cccc2cc(-c3nc([C@H]4CC[C@H](C(=O)O)CC4)n4ncnc(N)c34)[nH]c12 [OSI-027]

>  <Population Pyknosed Nuclei (%)>
17

$$$$
>  <compound>
COc1cc2ncnc(Nc3ccc(F)c(Cl)c3)c2cc1NC(=O)/C=C/CN1CCCCC1 [DACOMITINIB ANHYDROUS]

>  <Population Pyknosed Nuclei (%)>
4

$$$$
>  <compound>
CCCS(=O)(=O)c1nc(NC2CC2)cc(-c2ccc3c(ccn3C3CC(C)(C)NC(C)(C)C3)c2)n1

>  <Population Pyknosed Nuclei (%)>
16

$$$$

====

Test system: Fibroblast
protocol.summary: Multiplex assay against human fibroblast
Type: toxicity, cell-based
experimental.setup: 48 h, 1 µM, compound concentration 1 uM, replicate 1
Response field label: string, one of Criterion met (Population Membrane Permeable-Phenotype (%) strictly below 20%) or Criterion not met.

>  <compound>
Cl.O=c1c2cccn2c2ccccc2n1CCCN1CCC(c2ccc(Cl)cc2)CC1

>  <class.label>
Criterion met

$$$$
>  <compound>
CN1C2CCC1CC(OC(c1ccc(F)cc1)c1ccc(F)cc1)C2.Cl (stereo not given)

>  <class.label>
Criterion not met

$$$$
>  <compound>
COc1cc(N2CCN(C)CC2)ccc1Nc1ncc2c(n1)N(C)c1ccccc1C(=O)N2C

>  <class.label>
Criterion met

$$$$
>  <compound>
CCn1c(=O)c(-c2ccc(-c3cncs3)cc2Cl)cc2cnc(Nc3ccc(N4CCN(C)CC4)cc3)nc21

>  <class.label>
Criterion not met

$$$$
>  <compound>
CCCn1c(=O)c2[nH]c(-c3cnn(Cc4cccc(C(F)(F)F)c4)c3)nc2n(CC)c1=O

>  <class.label>
Criterion not met

$$$$
>  <compound>
O=C(Nc1ccc(-c2ccnc(Nc3ccc(N4CCOCC4)cc3)n2)cc1)[C@@H]1CCCN1

>  <class.label>
Criterion not met

$$$$
>  <compound>
CCc1cccc(CC)c1NC(=O)c1nn(C)c2c1CCc1cnc(Nc3ccc(C(=O)NC4CCN(C)CC4)cc3OC(F)(F)F)nc1-2

>  <class.label>
Criterion met

$$$$
>  <compound>
Cl.Oc1ccc2c3c1O[C@H]1c4[nH]c5c(c4C[C@@]4(O)[C@@H](C2)N(CC2CC2)CC[C@]314)C[C@@]1(O)[C@H]2Cc3ccc(O)c4c3[C@@]1(CCN2CC1CC1)[C@H]5O4

>  <class.label>
Criterion not met

$$$$
>  <compound>
Cc1cn(-c2cc(NC(=O)c3ccc(C)c(Nc4nccc(-c5cccnc5)n4)c3)cc(C(F)(F)F)c2)cn1

>  <class.label>
Criterion met

$$$$

====

System: U2OS
protocol.summary: Multiplex assay against U2OS
Assay type: toxicity, cell-based
experimental.setup: human, 24 h, 10 µM, compound concentration 10 uM, replicate 1
value.type: Population Mitochondria Different-Phenotype (%)

>  <molecule>
COc1ccc(-c2ccc3c(N4CCOCC4)nc(N4C[C@@H](C)O[C@@H](C)C4)nc3n2)cc1CO [Ku-0063794]

>  <assayed.target>
U2OS

>  <val>
4

$$$$
>  <molecule>
CCc1cccc(CC)c1NC(=O)c1nn(C)c2c1CCc1cnc(Nc3ccc(N4CCN(C)CC4)cc3OC)nc1-2

>  <assayed.target>
U2OS

>  <val>
73

$$$$
>  <molecule>
NC(=O)c1cccc(-c2cc(Nc3ccc(OC(F)(F)F)cc3)ncn2)c1

>  <assayed.target>
U2OS

>  <val>
19

$$$$
>  <molecule>
O=C(Nc1ccc(-c2ccnc(Nc3ccc(N4CCOCC4)cc3)n2)cc1)[C@@H]1CCCN1

>  <assayed.target>
U2OS

>  <val>
80

$$$$
>  <molecule>
COc1cc(N2CCN(C)CC2)ccc1Nc1ncc2c(n1)N(C)c1ccccc1C(=O)N2C

>  <assayed.target>
U2OS

>  <val>
94

$$$$
>  <molecule>
CCCS(=O)(=O)Nc1ccc(F)c(C(=O)c2c[nH]c3ncc(Cl)cc23)c1F [PLX-4720]

>  <assayed.target>
U2OS

>  <val>
32

$$$$
>  <molecule>
CCCn1c(=O)c2[nH]c(-c3cnn(Cc4cccc(C(F)(F)F)c4)c3)nc2n(CC)c1=O [GS 6201]

>  <assayed.target>
U2OS

>  <val>
31

$$$$

====

Tested on: U2OS
protocol.summary: Multiplex assay against U2OS
Assay type: toxicity, cell-based
experimental.setup: human, 48 h, 10 µM, compound concentration 10 uM, replicate 2
Label 1 (yes) when Population Mitotic Cells (%) is at or above 20%; anything below gets 0 (no).

>  <compound>
O=C(Nc1ccc(-n2nc(-c3cccnc3)cc2C(F)(F)F)cn1)c1ccc(-c2ccccc2)c(F)c1 [BI 2049]

>  <assayed.target>
U2OS

>  <class.label>
1 (yes)

$$$$
>  <compound>
COCC(=O)NC/C=C/c1ccc2ncnc(Nc3ccc(Oc4ccc(C)nc4)c(C)c3)c2c1 [CP-724714]

>  <assayed.target>
U2OS

>  <class.label>
1 (yes)

$$$$
>  <compound>
O=C(Nc1ccc(Cl)cc1)Nc1cccc(-c2cccc(N3CCCC3)n2)c1

>  <assayed.target>
U2OS

>  <class.label>
0 (no)

$$$$
>  <compound>
O=C(Cc1ccc(-c2ccc(OCCN3CCOCC3)cc2)cn1)NCc1ccccc1 [TIRBANIBULIN]

>  <assayed.target>
U2OS

>  <class.label>
1 (yes)

$$$$
>  <compound>
CCCS(=O)(=O)c1nc(NC2CC2)cc(-c2ccc3c(ccn3C3CC(C)(C)NC(C)(C)C3)c2)n1

>  <assayed.target>
U2OS

>  <class.label>
0 (no)

$$$$
>  <compound>
Cl.O=C(c1ccc(Nc2nccc(-c3cc4ccccc4s3)n2)cc1)N1CCC(N2CCCC2)CC1

>  <assayed.target>
U2OS

>  <class.label>
0 (no)

$$$$
>  <compound>
Cl.O=c1c2cccn2c2ccccc2n1CCCN1CCC(c2ccc(Cl)cc2)CC1

>  <assayed.target>
U2OS

>  <class.label>
0 (no)

$$$$
>  <compound>
CNc1cc(Oc2cc(C(=O)Nc3cc(N4CCN(C)CC4)cc(C(F)(F)F)c3)ccc2C)ncn1

>  <assayed.target>
U2OS

>  <class.label>
1 (yes)

$$$$
>  <compound>
CCN1CCN(Cc2ccc(Nc3ncc(F)c(-c4cc(F)c5nc(C)n(C(C)C)c5c4)n3)nc2)CC1.CS(=O)(=O)O

>  <assayed.target>
U2OS

>  <class.label>
0 (no)

$$$$
>  <compound>
CN1CCC(=C2c3ccccc3CC(=O)c3sccc32)CC1.O=C(O)/C=C/C(=O)O [KETOTIFEN FUMARATE]

>  <assayed.target>
U2OS

>  <class.label>
1 (yes)

$$$$
>  <compound>
CN1C2CCC1CC(OC(c1ccc(F)cc1)c1ccc(F)cc1)C2.Cl (stereo not drawn)

>  <assayed.target>
U2OS

>  <class.label>
1 (yes)

$$$$
>  <compound>
Cc1ccc(C(=O)Nc2cccc(C(F)(F)F)c2)cc1Nc1nc(-c2cccnc2)nc2c1cnn2C

>  <assayed.target>
U2OS

>  <class.label>
0 (no)

$$$$
>  <compound>
CCCn1c(=O)c2[nH]c(-c3cnn(Cc4cccc(C(F)(F)F)c4)c3)nc2n(CC)c1=O [GS 6201]

>  <assayed.target>
U2OS

>  <class.label>
1 (yes)

$$$$
>  <compound>
Cc1cc(C)c(S(=O)(=O)N(Cc2ccc(-c3cccc(S(C)(=O)=O)c3)cc2)Cc2ccc(C(F)(F)F)o2)c(C)c1

>  <assayed.target>
U2OS

>  <class.label>
1 (yes)

$$$$
>  <compound>
CCc1cccc(CC)c1NC(=O)c1nn(C)c2c1CCc1cnc(Nc3ccc(C(=O)NC4CCN(C)CC4)cc3OC(F)(F)F)nc1-2

>  <assayed.target>
U2OS

>  <class.label>
1 (yes)

$$$$
>  <compound>
COc1cc(N2CCN(C)CC2)ccc1Nc1ncc2c(n1)N(C)c1ccccc1C(=O)N2C

>  <assayed.target>
U2OS

>  <class.label>
1 (yes)

$$$$
>  <compound>
CCOC(=O)c1c(C)[nH]c2ccc3c(c12)CN1CCc2cc(OC)ccc2C1O3 (stereo not drawn)

>  <assayed.target>
U2OS

>  <class.label>
0 (no)

$$$$
>  <compound>
Cc1cn(-c2cc(NC(=O)c3ccc(C)c(Nc4nccc(-c5cccnc5)n4)c3)cc(C(F)(F)F)c2)cn1 [NILOTINIB]

>  <assayed.target>
U2OS

>  <class.label>
1 (yes)

$$$$
>  <compound>
O=C(Nc1ccc(-c2ccnc(Nc3ccc(N4CCOCC4)cc3)n2)cc1)[C@@H]1CCCN1

>  <assayed.target>
U2OS

>  <class.label>
1 (yes)

$$$$
>  <compound>
C=C1/C(=C\C=C2/CCC[C@]3(C)[C@@H]([C@H](C)/C=C/[C@H](C)C(C)C)CC[C@@H]23)C[C@@H](O)C[C@@H]1O [DOXERCALCIFEROL]

>  <assayed.target>
U2OS

>  <class.label>
1 (yes)

$$$$
>  <compound>
Cl.Oc1ccc2c3c1O[C@H]1c4[nH]c5c(c4C[C@@]4(O)[C@@H](C2)N(CC2CC2)CC[C@]314)C[C@@]1(O)[C@H]2Cc3ccc(O)c4c3[C@@]1(CCN2CC1CC1)[C@H]5O4

>  <assayed.target>
U2OS

>  <class.label>
1 (yes)

$$$$
>  <compound>
O=C1N/C(=N/c2ccccc2F)S/C1=C\c1ccc(C(=O)O)cc1

>  <assayed.target>
U2OS

>  <class.label>
1 (yes)

$$$$
>  <compound>
CN1CCN(C(=O)C(C)(C)c2ccc(C(=O)Nc3cn4cc(-c5ccncc5)ccc4n3)cc2)CC1 [T3-CLK]

>  <assayed.target>
U2OS

>  <class.label>
1 (yes)

$$$$
>  <compound>
O=C1NC(=O)C(c2cnc3ccccn23)=C1c1cn2c3c(cc(F)cc13)CN(C(=O)N1CCCCC1)CC2 [LY-2090314]

>  <assayed.target>
U2OS

>  <class.label>
0 (no)

$$$$
>  <compound>
S=C(NCCCc1c[nH]cn1)NCCCN(Cc1ccc(Cl)c(Cl)c1)c1ccc(Br)cn1

>  <assayed.target>
U2OS

>  <class.label>
0 (no)

$$$$
>  <compound>
CCn1c(=O)c(-c2ccc(-c3cncs3)cc2Cl)cc2cnc(Nc3ccc(N4CCN(C)CC4)cc3)nc21

>  <assayed.target>
U2OS

>  <class.label>
1 (yes)

$$$$
>  <compound>
CCOc1cc(C(=O)N2CCC(N3CCN(C)CC3)CC2)ccc1Nc1ncc2c(n1)N(C1CCCC1)c1ccccc1C(=O)N2C

>  <assayed.target>
U2OS

>  <class.label>
0 (no)

$$$$
>  <compound>
CN(C)C(=O)C(CCN1CCC(O)(c2ccc(Cl)cc2)CC1)(c1ccccc1)c1ccccc1.Cl [LOPERAMIDE HYDROCHLORIDE]

>  <assayed.target>
U2OS

>  <class.label>
0 (no)

$$$$
